Sourced from patent US9907800B2

Molecular target: human PLK4 (Homo sapiens (Human), UniProt O00444)
Sequence (O00444 1-391): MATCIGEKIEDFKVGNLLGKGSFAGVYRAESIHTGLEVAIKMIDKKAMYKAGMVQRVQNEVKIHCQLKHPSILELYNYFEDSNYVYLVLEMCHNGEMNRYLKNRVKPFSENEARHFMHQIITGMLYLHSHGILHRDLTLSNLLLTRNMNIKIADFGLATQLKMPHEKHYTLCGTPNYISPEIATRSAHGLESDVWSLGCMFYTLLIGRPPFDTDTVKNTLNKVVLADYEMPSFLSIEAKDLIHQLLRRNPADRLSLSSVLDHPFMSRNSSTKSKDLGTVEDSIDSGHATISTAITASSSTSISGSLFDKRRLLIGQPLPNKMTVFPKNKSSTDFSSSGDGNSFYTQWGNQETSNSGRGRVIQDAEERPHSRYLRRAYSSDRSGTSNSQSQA
Test: PLK4 inhibition assay (indirect ELISA)
Assay type: biochemical
observable: IC50

So what's the measured IC50 for this one? COc1ccc2c(c1)[C@]1(C[C@H]1c1ccc3c(-c4ccc(N5CCNCC5)cc4)n[nH]c3c1)C(=O)N2 (relative stereo) [Example A48, 2,2,2-trifluoroacetate]
< 100 nM

----------
Molecular target: FLT3 (Homo sapiens (Human), UniProt P36888)
Sequence (P36888 27-993): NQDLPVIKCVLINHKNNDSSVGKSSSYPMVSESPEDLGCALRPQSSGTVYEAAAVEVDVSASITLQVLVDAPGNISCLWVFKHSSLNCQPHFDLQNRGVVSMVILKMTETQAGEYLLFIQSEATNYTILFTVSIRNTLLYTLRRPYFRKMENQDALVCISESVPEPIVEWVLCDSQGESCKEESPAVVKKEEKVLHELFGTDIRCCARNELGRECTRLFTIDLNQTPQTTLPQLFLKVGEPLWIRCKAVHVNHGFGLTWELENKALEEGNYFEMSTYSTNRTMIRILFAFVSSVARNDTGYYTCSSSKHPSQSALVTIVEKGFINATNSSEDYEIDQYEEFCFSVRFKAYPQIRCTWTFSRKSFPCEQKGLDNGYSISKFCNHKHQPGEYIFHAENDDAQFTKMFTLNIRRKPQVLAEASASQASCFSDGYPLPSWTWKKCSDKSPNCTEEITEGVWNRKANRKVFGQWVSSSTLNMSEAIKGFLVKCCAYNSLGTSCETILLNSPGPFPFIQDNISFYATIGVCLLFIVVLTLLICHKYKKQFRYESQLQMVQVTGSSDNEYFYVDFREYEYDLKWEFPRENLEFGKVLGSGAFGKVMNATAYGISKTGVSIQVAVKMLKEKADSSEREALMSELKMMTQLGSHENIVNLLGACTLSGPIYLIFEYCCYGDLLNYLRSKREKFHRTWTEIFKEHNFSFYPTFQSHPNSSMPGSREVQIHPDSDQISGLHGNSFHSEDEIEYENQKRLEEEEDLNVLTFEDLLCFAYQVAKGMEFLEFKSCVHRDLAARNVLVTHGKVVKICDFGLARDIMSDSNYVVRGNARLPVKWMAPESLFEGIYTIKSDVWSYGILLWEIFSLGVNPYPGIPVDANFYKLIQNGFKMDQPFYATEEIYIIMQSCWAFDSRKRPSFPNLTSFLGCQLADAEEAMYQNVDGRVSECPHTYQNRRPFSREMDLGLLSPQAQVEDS
pIC50: −log10 of the molar value. Counter-ions that a name gives are not always drawn.
observable: pIC50

[[record]]
molecule = "COc1ccc2c(c1)[C@@]1(C[C@@H]1c1ccc3c(-c4ccc(N5CCN(C)CC5)nc4)n[nH]c3c1)C(=O)N2 (stereo in doubt)"
target_system = "FLT3 (Homo sapiens (Human), UniProt P36888)"
recorded_result = "> 7.00"

[[record]]
molecule = "COc1ccc2c(c1)[C@]1(C[C@H]1c1ccc3c(-c4cccc(CN5CCCCC5)c4)n[nH]c3c1)C(=O)N2 (relative stereo) [Example A44, 2,2,2-trifluoroacetate]"
target_system = "FLT3 (Homo sapiens (Human), UniProt P36888)"
recorded_result = "< 6.00"

[[record]]
molecule = "COc1ccc2c(c1)[C@]1(C[C@H]1c1ccc3c(/C=C/c4ccc(CN5CC[C@@H](F)C5)cc4)n[nH]c3c1)C(=O)N2 [Example A112, 2,2,2-trifluoroacetate]"
target_system = "FLT3 (Homo sapiens (Human), UniProt P36888)"
recorded_result = "6.00 to 7.00"

[[record]]
molecule = "COc1ccc2c(c1)[C@]1(C[C@H]1c1ccc3c(/C=C/c4cccc(CN(C)C)c4)n[nH]c3c1)C(=O)N2 [Example A134, 2,2,2-trifluoroacetate]"
target_system = "FLT3 (Homo sapiens (Human), UniProt P36888)"
recorded_result = "> 7.00"

[[record]]
molecule = "COc1ccc2c(c1)[C@]1(C[C@H]1c1ccc3c(-c4ccc(N5CCN(C6CCCC6)CC5)cc4)n[nH]c3c1)C(=O)N2 [Example A192, 2,2,2-trifluoroacetate]"
target_system = "FLT3 (Homo sapiens (Human), UniProt P36888)"
recorded_result = "6.00 to 7.00"


So what's the measured pIC50 for this one? COc1ccc2c(c1)[C@]1(C[C@H]1c1ccc3c(-c4cccc(N5CCNCC5)c4)n[nH]c3c1)C(=O)N2 (relative stereo) [Example A47, 2,2,2-trifluoroacetate]
< 6.00

So what's the measured pIC50 for this one? COc1ccc2c(c1)[C@]1(C[C@H]1c1ccc3c(-c4ccc(N5C[C@@H](C)N[C@@H](C)C5)cc4)n[nH]c3c1)C(=O)N2 [Example A126, 2,2,2-trifluoroacetate]
6.00 to 7.00

So what's the measured pIC50 for this one? COc1ccc2c(c1)[C@]1(C[C@H]1c1ccc3c(-c4cccc(C(=O)N5CCN(C)CC5)c4)n[nH]c3c1)C(=O)N2 (relative stereo) [Example A149, 2,2,2-trifluoroacetate]
< 6.00

So what's the measured pIC50 for this one? COCCN1C(=O)[C@@]2(C[C@H]2c2ccc3c(/C=C/c4ccc(CN(C)C)cc4)n[nH]c3c2)c2ccccc21 [Example A131, 2,2,2-trifluoroacetate]
< 6.00

So what's the measured pIC50 for this one? `COc1ccc2c(c1)[C@]1(C[C@H]1c1ccc3c(/C=C/c4ccc(CN5C[C@@H](C)O[C@@H](C)C5)cc4)n[nH]c3c1)C(=O)N2`
6.00 to 7.00

So what's the measured pIC50 for this one? COc1ccc2c(c1)[C@]1(C[C@H]1c1ccc3c(-c4ccc5c(c4)CNCC5)n[nH]c3c1)C(=O)N2 [Example A71, 2,2,2-trifluoroacetate salt]
6.00 to 7.00
